Where these numbers come from: patent US20230406865A1

assay_name: Balb/C mouse pharmacokinetics, oral 5 mg/kg
Type: in vivo, Balb/C mice
condition_details: male, p.o. 5 mg/kg, plasma, read-out: Curve area AUC0-∞
Everything with AUC(0-inf) lower than 20000 ng·h/mL is n; everything else, including exactly 20000 ng·h/mL, is y.

molecule | qualitative_label
COc1ccc(CN2C3CC2CN(c2ccc(-c4cc(N5CC(C)(C#N)C5)cn5ncc(C#N)c45)cn2)C3)cn1 | y
COc1ccc(CN2C3CC2CN(c2ccc(-c4cc(OCC(C)(C)C#N)cn5ncc(C#N)c45)cn2)C3)cn1 | n

Problem: Dear colleague, could you confirm whether `COc1ccc(CN2C3CC2CN(c2ccc(-c4cc(OCC5(C#N)CCOCC5)cn5ncc(C#N)c45)cn2)C3)cn1` has AUC(0-inf) at or above 20000 ng·h/mL?
Solution: n

Problem: Dear colleague, could you confirm whether `COc1ccc(CN2C3CC2CN(c2ccc(-c4cc(OCC5(C#N)CCC5)cn5ncc(C#N)c45)cn2)C3)cn1` has AUC(0-inf) at or above 20000 ng·h/mL?
Solution: n

Problem: Dear colleague, could you confirm whether `C#C[C@@](C)(O)COc1cc(-c2ccc(N3CC4CC(C3)N4Cc3ccc(OC)nc3)nc2)c2c(C#N)cnn2c1` has AUC(0-inf) at or above 20000 ng·h/mL?
Solution: n

Problem: Dear colleague, could you confirm whether `COc1ccc(CN2C3CC2CN(c2ccc(-c4cc(C#CC(C)(C)O)cn5ncc(C#N)c45)cn2)C3)cn1` has AUC(0-inf) at or above 20000 ng·h/mL?
Solution: y

Problem: Dear colleague, could you confirm whether `COc1ccc(CN2C3CC2CN(c2ccc(-c4cc(N5CC(C(C)(C)O)C5)cn5ncc(C#N)c45)cn2)C3)cn1` has AUC(0-inf) at or above 20000 ng·h/mL?
Solution: n

Problem: Dear colleague, could you confirm whether `COc1ncc(CN2C3CC2CN(c2ccc(-c4cc(C#CC(C)(C)O)cn5ncc(C#N)c45)cn2)C3)cc1F` has AUC(0-inf) at or above 20000 ng·h/mL?
Solution: n

Problem: Dear colleague, could you confirm whether `COc1ncc(CN2C3CC2CN(c2ccc(-c4cc(C#C[C@@H](C)O)cn5ncc(C#N)c45)cn2)C3)cc1F` has AUC(0-inf) at or above 20000 ng·h/mL?
Solution: n

Problem: Dear colleague, could you confirm whether `COc1ncc(CN2C3CC2CN(c2ccc(-c4cc(OCC5(C#N)CC5)cn5ncc(C#N)c45)cn2)C3)cc1F` has AUC(0-inf) at or above 20000 ng·h/mL?
Solution: y

---

tgt: KDR kinase (Homo sapiens)
Construct: purchased Carna 08-191
Sequence (P35968 20-1356): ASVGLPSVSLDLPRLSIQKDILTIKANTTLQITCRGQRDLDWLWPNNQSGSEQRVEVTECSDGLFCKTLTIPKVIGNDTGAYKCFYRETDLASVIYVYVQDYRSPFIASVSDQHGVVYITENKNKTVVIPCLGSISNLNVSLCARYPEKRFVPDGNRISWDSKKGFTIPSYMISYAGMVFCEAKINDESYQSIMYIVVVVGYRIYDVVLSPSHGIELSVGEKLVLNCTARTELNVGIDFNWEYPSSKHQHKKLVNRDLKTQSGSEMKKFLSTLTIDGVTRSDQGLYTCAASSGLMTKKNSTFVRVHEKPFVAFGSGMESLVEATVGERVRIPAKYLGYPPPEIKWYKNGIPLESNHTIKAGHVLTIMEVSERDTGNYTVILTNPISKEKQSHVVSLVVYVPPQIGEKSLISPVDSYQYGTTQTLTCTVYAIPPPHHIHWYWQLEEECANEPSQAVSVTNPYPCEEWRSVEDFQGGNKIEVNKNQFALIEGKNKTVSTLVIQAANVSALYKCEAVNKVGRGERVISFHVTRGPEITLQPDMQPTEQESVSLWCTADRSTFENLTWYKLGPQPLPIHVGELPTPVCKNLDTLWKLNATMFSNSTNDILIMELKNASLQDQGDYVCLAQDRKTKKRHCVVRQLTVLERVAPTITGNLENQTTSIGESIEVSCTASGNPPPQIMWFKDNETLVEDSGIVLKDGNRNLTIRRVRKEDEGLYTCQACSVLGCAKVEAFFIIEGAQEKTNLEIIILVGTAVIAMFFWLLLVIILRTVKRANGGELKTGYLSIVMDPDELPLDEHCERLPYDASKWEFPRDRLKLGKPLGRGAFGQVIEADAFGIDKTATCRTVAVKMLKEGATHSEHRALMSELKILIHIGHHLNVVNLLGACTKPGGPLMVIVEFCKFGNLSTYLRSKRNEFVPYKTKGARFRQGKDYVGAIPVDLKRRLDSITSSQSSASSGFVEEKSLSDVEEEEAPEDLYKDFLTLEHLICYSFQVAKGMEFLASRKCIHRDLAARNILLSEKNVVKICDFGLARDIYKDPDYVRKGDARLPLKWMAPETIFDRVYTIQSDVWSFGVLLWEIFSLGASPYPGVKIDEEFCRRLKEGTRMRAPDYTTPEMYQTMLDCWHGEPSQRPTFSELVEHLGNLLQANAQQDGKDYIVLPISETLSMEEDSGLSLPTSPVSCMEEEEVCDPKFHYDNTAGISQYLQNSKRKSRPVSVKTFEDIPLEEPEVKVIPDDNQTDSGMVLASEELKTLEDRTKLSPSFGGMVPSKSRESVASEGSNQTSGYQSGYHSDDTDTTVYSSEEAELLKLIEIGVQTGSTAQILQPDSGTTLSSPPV
assay_name: HTRF kinase activity inhibition, KDR
Type: biochemical
condition_details: KDR IC50 / RET IC50
Everything with Ratio (KDR/RET) lower than 60 is 0; everything else, including exactly 60, is 1.

Example results:
molecule | qualitative_label
COc1ccc(CN2C3CC2CN(c2ccc(-c4cc(OCC5CCS(=N)(=O)CC5)cn5ncc(C#N)c45)cn2)C3)cn1 (stereo not shown) | 0
C#CC(C)(O)COc1cc(-c2ccc(N3CC4CC(C3)N4Cc3ccc(OC)nc3)nc2)c2c(C#N)cnn2c1 (stereo not shown) | 1
COc1ccc(CN2C3CC2CN(c2ccc(-c4cc(N5CCC(C)(O)C5)cn5ncc(C#N)c45)cn2)C3)cn1 (stereo not shown) | 0

Attention now turns to another entry.
Problem: Dear colleague, could you confirm whether COc1ccc(CN2C3CC2CN(c2ccc(-c4cc(OCC5CS(=N)(=O)C5)cn5ncc(C#N)c45)cn2)C3)cn1 (stereo not shown) has Ratio (KDR/RET) at or above 60?
Solution: 0

---

CCDC6-RET (Homo sapiens) pIC50 data
Sequence (P07949 with tags, fused parts or gaps): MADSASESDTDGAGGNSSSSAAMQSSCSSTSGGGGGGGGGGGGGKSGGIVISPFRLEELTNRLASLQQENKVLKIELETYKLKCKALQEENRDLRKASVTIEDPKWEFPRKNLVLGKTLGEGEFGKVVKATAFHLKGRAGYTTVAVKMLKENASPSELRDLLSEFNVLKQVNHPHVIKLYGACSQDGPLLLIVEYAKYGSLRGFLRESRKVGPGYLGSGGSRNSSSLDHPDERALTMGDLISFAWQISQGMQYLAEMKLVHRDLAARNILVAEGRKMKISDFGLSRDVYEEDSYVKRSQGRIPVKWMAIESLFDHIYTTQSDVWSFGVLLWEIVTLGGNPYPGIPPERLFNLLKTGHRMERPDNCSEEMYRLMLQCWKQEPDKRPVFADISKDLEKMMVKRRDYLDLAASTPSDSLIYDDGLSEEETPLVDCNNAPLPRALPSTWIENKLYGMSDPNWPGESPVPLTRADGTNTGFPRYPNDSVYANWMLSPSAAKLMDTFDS
// scale note: pIC50 = -log10(conc_M); give the bare number

Here are 2 compounds together with their reported answers.
smiles_entry | pIC50
COc1ccc(CN2C3CC2CN(c2ccc(-c4cc(N5CC(C)(C#N)C5)cn5ncc(C#N)c45)cn2)C3)cn1 | 9.01
C#C[C@@](C)(O)COc1cc(-c2ccc(N3CC4CC(C3)N4Cc3ccc(OC)nc3)nc2)c2c(C#N)cnn2c1 | 9.07

# input for lookup
Problem: Report pIC50 for `C#C[C@](C)(O)COc1cc(-c2ccc(N3CC4CC(C3)N4Cc3ccc(OC)nc3)nc2)c2c(C#N)cnn2c1` tested on CCDC6-RET (Homo sapiens).
Solution: 8.76

---

// reported pIC50 for each item listed
System: TT cells (MTC, RET C634W)
assay_name: Inhibition of proliferation of TT cells (CellTiter-Glo, 72 h)
Format: cell-based
condition_details: Homo sapiens
// scale note: pIC50 = -log10(conc_M); give the bare number

Here are 5 molecules together with their reported answers.
molecule | pIC50
COc1ccc(CN2C3CC2CN(c2ccc(-c4cc(C#C[C@@H](C)O)cn5ncc(C#N)c45)cn2)C3)cn1 | 7.68
COc1ccc(CN2C3CC2CN(c2ccc(-c4cc(C#CCC(C)(C)O)cn5ncc(C#N)c45)cn2)C3)cn1 | 7.71
COc1ncc(CN2C3CC2CN(c2ccc(-c4cc(N5CC(C)(O)C5)cn5ncc(C#N)c45)cn2)C3)cc1F | 8.23
COc1ccc(CN2C3CC2CN(c2ccc(-c4cc(C#CC(C)(C)O)cn5ncc(C#N)c45)cn2)C3)cn1 | 7.77
[2H]C([2H])([2H])Oc1ccc(CN2C3CC2CN(c2ccc(-c4cc(C#CC(C)(C)O)cn5ncc(C#N)c45)cn2)C3)cn1 | 7.82

Problem: Param item = `COc1ccc(CN2C3CC2CN(c2ccc(-c4cc(OCC56CC(O)(C5)C6)cn5ncc(C#N)c45)cn2)C3)cn1` ; retrieve measured pIC50.
Solution: 7.88

Problem: Param item = `COc1ncc(CN2C3CC2CN(c2ccc(-c4cc(OCC56CC(CO)(C5)C6)cn5ncc(C#N)c45)cn2)C3)cc1F` ; retrieve measured pIC50.
Solution: 8.06

---

assay_name: Balb/C mouse pharmacokinetics, oral 5 mg/kg
Type: in vivo, Balb/C mice
condition_details: male, p.o. 5 mg/kg, plasma, read-out: Blood concentration Cmax
// reported Cmax for each item listed
The reply should contain only the number, in ng/mL.

Here are 3 molecules together with their reported answers.
smiles_entry | Cmax, ng/mL
COc1ccc(CN2C3CC2CN(c2ccc(-c4cc(C#CC(C)(C)O)cn5ncc(C#N)c45)cn2)C3)cn1 | 3710
COc1ccc(CN2C3CC2CN(c2ccc(-c4cc(N5CC(C)(C#N)C5)cn5ncc(C#N)c45)cn2)C3)cn1 | 4680
C#C[C@@](C)(O)COc1cc(-c2ccc(N3CC4CC(C3)N4Cc3ccc(OC)nc3)nc2)c2c(C#N)cnn2c1 | 2940

# input for lookup
Problem: Param item = `CC1(NC(=O)c2ncccc2Cl)CCN(c2ccc(-c3cc(OCC4(C#N)CC4)cn4ncc(C#N)c34)cn2)CC1` ; retrieve measured Cmax.
Solution: 9340

---

tgt: KIF5B-RET (Homo sapiens, UniProt P07949)
Sequence (P07949 with tags, fused parts or gaps): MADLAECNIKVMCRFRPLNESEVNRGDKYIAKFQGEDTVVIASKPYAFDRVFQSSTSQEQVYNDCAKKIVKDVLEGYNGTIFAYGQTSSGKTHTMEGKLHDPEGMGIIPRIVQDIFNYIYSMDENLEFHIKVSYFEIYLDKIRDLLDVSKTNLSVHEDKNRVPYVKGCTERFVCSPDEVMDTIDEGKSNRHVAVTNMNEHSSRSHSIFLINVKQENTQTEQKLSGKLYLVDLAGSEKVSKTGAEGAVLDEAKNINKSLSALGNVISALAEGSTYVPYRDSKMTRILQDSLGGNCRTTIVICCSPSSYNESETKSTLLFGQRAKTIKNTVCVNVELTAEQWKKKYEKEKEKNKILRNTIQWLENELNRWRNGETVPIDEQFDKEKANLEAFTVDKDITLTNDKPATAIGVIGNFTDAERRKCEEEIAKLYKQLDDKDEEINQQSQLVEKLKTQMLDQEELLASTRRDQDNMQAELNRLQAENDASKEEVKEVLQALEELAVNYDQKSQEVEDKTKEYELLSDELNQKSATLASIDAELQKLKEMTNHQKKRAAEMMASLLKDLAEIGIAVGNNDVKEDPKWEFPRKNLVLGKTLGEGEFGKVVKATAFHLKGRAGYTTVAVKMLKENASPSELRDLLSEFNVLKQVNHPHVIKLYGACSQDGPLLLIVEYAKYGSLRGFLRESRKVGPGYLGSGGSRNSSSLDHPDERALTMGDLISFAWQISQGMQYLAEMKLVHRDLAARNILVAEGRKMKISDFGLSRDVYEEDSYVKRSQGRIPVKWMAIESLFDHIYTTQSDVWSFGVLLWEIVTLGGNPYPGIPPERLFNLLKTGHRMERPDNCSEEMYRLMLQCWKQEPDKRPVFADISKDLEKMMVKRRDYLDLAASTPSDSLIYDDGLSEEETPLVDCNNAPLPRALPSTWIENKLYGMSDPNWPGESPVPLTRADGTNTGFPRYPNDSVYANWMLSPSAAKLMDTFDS
property_measured: IC50 (nM)
The reply should contain only the number, in nM.

molecule | IC50 / nM
COc1ncc(CN2C3CC2CN(c2ccc(-c4cc(C#CC(C)(C)O)cn5ncc(C#N)c45)cn2)C3)cc1F [Embodiment 18] | 0.97
C#C[C@](C)(O)COc1cc(-c2ccc(N3CC4CC(C3)N4Cc3ccc(OC)nc3)nc2)c2c(C#N)cnn2c1 [Embodiment 64] | 0.36
CC1(NC(=O)c2ncccc2Cl)CCN(c2ccc(-c3cc(C#CC4(O)COC4)cn4ncc(C#N)c34)cn2)CC1 [Embodiment 97] | 0.5

Problem: Report IC50 for COc1ccc(CN2C3CC2CN(c2ccc(-c4cc(N5CC(C)(C#N)C5)cn5ncc(C#N)c45)cn2)C3)cn1 [Embodiment 77] tested on KIF5B-RET (Homo sapiens, UniProt P07949).
Solution: 0.42

---

// reported Ratio (KDR/RET) for each item listed
tgt: KDR kinase (Homo sapiens)
Construct: purchased Carna 08-191
assay_name: HTRF kinase activity inhibition, KDR
Type: biochemical
condition_details: KDR IC50 / RET IC50
Keep the answer to the number alone.

molecule | tgt | Ratio (KDR/RET)
COc1ccc(CN2C3CC2CN(c2ccc(-c4cc(OCC5(C#N)CCOCC5)cn5ncc(C#N)c45)cn2)C3)cn1 [Embodiment 59] | KDR kinase (Homo sapiens) | 317
CC1(NC(=O)c2ncccc2Cl)CCN(c2ccc(-c3cc(OCC4(N)CC4)cn4ncc(C#N)c34)cn2)CC1 [Embodiment 91] | KDR kinase (Homo sapiens) | 133
COc1ccc(CN2C3CC2CN(c2ccc(-c4cc(C#CC(C)(C)N)cn5ncc(C#N)c45)cn2)C3)cn1 [Embodiment 17] | KDR kinase (Homo sapiens) | 21
COc1ncc(CN2C3CC2CN(c2ccc(-c4cc(OCC5(C#N)CCOCC5)cn5ncc(C#N)c45)cn2)C3)cc1F [Embodiment 60] | KDR kinase (Homo sapiens) | 445

# input for lookup
Problem: Param item = COc1ccc(CN2C3CC2CN(c2ccc(-c4cc(OCC5(C#N)CC(F)(F)C5)cn5ncc(C#N)c45)cn2)C3)cn1 [Embodiment 57] ; retrieve measured Ratio (KDR/RET).
Solution: 187
